Target: Stk10 (Homo sapiens)
Sequence (O94804 whole entry): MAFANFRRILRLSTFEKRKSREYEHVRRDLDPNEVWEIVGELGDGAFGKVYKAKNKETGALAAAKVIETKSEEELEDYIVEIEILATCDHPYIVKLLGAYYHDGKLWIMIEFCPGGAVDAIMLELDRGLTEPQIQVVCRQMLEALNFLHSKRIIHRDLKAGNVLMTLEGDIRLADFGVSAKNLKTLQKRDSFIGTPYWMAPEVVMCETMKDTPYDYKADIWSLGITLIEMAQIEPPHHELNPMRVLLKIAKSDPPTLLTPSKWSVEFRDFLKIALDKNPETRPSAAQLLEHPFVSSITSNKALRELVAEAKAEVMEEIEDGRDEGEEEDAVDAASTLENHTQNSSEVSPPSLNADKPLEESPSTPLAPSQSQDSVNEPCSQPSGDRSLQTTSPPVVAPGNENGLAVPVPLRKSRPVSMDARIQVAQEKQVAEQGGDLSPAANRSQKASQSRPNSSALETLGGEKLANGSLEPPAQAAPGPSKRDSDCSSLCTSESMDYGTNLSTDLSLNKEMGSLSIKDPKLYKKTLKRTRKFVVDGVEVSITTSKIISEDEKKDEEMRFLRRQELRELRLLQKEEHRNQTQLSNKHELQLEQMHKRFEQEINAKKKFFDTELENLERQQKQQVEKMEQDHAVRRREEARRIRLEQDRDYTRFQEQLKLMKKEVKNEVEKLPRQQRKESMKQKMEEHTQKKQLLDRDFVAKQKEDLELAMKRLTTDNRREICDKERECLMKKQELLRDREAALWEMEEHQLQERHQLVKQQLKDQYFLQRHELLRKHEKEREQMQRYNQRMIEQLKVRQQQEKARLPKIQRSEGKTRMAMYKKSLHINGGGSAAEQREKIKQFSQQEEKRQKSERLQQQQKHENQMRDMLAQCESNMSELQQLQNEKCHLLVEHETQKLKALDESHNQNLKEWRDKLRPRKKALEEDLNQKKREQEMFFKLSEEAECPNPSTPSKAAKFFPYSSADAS
Experiment: KinaseProfiler kinase activity assay
Assay type: biochemical
Design: purchased EMD Millipore Corp. (KinaseProfiler service)
Conditions: Stk10 (LOK); ATP at Km

{"Entry Smiles": "Nc1nc(Nc2ccc3c(c2)CC[C@@H](N2CCCC2)CC3)nn1-c1cc2c(nn1)-c1ccccc1CCC2", "Experimental Target": "Stk10 (Homo sapiens)", "IC50 [nM]": 22}

###

Target: Other mutations of Abl kinase that arise during development of resistance (Homo sapiens, UniProt P00519)
Assay: Inhibition of other Abl kinase resistance mutations (biochemical assays)
Conditions: read-out: inhibition range, other mutations of Abl kinase
pIC50: −log10 of the molar value.
Observation Type: pIC50

{"Molecule": "Nc1nc(Nc2ccc3c(c2)CC[C@@H](N2CCCC2)CC3)nn1-c1cc2c(nn1)-c1ccccc1CCC2 [Compound A]", "Observation Type": "pIC50", "Data Value": "7.49 to 7.80"}

###

Biological target: Abl(Y253F) (Homo sapiens, UniProt P00519, Y253F)
Assay: KinaseProfiler kinase activity assay
Type: biochemical
Design: purchased EMD Millipore Corp. (KinaseProfiler service)
Conditions: ATP at Km

{"Molecule": "Nc1nc(Nc2ccc3c(c2)CC[C@@H](N2CCCC2)CC3)nn1-c1cc2c(nn1)-c1ccccc1CCC2 [Compound A]", "IC50 (nM)": 26}

###

Target: Yes (Homo sapiens)
Sequence (P07947 whole entry): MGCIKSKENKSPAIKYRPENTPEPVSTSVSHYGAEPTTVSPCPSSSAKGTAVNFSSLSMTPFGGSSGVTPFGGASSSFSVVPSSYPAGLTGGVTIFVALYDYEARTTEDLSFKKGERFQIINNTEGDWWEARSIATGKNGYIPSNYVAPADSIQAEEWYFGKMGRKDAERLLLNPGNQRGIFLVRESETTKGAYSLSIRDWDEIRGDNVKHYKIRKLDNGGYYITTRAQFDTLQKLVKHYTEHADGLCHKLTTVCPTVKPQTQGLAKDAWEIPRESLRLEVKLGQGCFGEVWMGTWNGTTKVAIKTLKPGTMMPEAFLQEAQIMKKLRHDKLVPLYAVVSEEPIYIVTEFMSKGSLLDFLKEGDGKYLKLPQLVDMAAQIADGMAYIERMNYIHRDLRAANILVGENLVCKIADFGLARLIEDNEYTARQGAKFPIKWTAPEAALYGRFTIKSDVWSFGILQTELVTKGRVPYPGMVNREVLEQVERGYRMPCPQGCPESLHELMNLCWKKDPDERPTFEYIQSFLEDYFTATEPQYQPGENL
Assay: KinaseProfiler kinase activity assay
Format: biochemical
Design: purchased EMD Millipore Corp. (KinaseProfiler service)
Settings: ATP at Km
Observation Type: IC50 (nM)

{"Entry Smiles": "Nc1nc(Nc2ccc3c(c2)CC[C@@H](N2CCCC2)CC3)nn1-c1cc2c(nn1)-c1ccccc1CCC2", "Observation Type": "IC50", "Measurement Units": "nM", "Data Value": 43}

###

Molecular target: Wee1 (Homo sapiens, UniProt P30291)
Sequence (P30291 whole entry): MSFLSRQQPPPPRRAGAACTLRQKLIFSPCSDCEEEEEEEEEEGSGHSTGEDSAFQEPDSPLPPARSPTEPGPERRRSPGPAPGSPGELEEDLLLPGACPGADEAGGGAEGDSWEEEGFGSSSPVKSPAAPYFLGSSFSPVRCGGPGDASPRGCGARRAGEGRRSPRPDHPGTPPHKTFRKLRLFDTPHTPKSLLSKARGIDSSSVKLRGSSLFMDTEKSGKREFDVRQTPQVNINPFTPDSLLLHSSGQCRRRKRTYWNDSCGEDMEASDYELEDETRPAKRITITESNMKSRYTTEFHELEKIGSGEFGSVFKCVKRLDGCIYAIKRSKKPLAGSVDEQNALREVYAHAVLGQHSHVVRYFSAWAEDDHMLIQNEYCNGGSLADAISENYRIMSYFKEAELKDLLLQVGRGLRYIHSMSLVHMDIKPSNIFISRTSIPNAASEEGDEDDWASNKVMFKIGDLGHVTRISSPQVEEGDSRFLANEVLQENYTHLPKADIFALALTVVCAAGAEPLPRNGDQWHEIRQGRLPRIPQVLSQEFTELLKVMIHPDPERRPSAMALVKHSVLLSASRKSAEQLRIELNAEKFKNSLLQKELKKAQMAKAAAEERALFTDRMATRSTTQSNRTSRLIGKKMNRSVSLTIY
Assay: KinaseProfiler kinase activity assay
Assay type: biochemical
Design: purchased EMD Millipore Corp. (KinaseProfiler service)
Conditions: ATP at Km
Text: A summary is provided below.
Observation Type: IC50 (nM)

{"Entry Smiles": "Nc1nc(Nc2ccc3c(c2)CC[C@@H](N2CCCC2)CC3)nn1-c1cc2c(nn1)-c1ccccc1CCC2", "Data Value": 32}

###

Test system: Ba/F3 cells expressing the non-mutated Bcr-Abl1 kinase
Experiment: WST-1 cell viability, Ba/F3 cells expressing Bcr-Abl1
Assay type: cell-based
Conditions: Mus musculus, BaF3, 48 hours, serum free
Description: Ba/F3 cells either stably overexpressing Bcr-Abl1 (A) or the mutant Bcr-Abl1 T315I (B) were cultured overnight in serum free RPMI-1640 media supplemented with 2 mM glutamine, 100 U/mL penicillin and 100 μg/mL streptomycin (Sigma-Aldrich). […] The 96 well plates were incubated for 48 hours, and cell viability was measured in a WST-1 assay (Roche). […] The readout was performed in an ELSA reader at 480 nm. […]
pIC50: −log10 of the molar value.
Observation Type: pIC50

{"Entry Smiles": "Nc1nc(Nc2ccc3c(c2)CC[C@@H](N2CCCC2)CC3)nn1-c1cc2c(nn1)-c1ccccc1CCC2", "Data Value": 6.10}

###

Biological target: Ret (V804M) (Homo sapiens, UniProt P07949, V804M)
Sequence (P07949 29-1114 V804M): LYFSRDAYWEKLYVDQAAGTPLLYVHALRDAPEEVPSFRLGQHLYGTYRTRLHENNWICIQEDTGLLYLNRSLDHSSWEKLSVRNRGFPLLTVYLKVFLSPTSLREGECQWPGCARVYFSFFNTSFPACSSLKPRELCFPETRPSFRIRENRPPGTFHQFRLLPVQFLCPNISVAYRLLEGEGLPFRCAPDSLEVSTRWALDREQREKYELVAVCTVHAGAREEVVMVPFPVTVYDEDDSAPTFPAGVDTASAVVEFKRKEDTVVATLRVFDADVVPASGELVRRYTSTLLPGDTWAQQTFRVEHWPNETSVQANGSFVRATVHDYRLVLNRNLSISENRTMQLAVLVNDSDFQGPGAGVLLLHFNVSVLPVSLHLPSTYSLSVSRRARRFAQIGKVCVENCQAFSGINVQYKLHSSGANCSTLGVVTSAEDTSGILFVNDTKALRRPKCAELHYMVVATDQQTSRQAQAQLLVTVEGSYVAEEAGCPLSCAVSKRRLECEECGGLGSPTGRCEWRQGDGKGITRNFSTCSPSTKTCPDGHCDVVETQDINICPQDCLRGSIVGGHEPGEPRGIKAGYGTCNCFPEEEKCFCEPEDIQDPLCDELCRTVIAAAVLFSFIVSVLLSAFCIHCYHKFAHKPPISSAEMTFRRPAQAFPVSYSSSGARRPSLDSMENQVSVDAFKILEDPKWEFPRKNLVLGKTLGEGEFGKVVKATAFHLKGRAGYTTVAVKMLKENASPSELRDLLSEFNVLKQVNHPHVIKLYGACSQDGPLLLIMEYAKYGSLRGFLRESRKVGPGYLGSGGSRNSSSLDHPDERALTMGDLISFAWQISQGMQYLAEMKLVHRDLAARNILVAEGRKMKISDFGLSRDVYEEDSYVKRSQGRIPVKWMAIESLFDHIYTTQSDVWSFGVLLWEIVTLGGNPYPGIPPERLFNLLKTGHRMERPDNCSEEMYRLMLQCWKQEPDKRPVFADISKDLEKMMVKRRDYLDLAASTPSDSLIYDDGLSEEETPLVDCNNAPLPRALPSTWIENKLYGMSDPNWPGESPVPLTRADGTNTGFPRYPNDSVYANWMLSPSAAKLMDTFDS
Assay: KinaseProfiler kinase activity assay
Assay type: biochemical
Set-up: purchased EMD Millipore Corp. (KinaseProfiler service)
Settings: ATP at Km

{"Entry Smiles": "Nc1nc(Nc2ccc3c(c2)CC[C@@H](N2CCCC2)CC3)nn1-c1cc2c(nn1)-c1ccccc1CCC2", "IC50 [nM]": 21}

###

Target: Abl (T315I) (Homo sapiens, UniProt P00519, T315I)
Assay: KinaseProfiler kinase activity assay
Type: biochemical
Set-up: purchased EMD Millipore Corp. (KinaseProfiler service)
Settings: ATP at Km

{"Entry Smiles": "Nc1nc(Nc2ccc3c(c2)CC[C@@H](N2CCCC2)CC3)nn1-c1cc2c(nn1)-c1ccccc1CCC2", "IC50": "4 nM"}

###

Molecular target: TEK(Y897S) (Homo sapiens, UniProt Q02763, Y897S)
Construct: purchased EMD Millipore Corp. (KinaseProfiler service)
Sequence (Q02763 23-1124 Y897S): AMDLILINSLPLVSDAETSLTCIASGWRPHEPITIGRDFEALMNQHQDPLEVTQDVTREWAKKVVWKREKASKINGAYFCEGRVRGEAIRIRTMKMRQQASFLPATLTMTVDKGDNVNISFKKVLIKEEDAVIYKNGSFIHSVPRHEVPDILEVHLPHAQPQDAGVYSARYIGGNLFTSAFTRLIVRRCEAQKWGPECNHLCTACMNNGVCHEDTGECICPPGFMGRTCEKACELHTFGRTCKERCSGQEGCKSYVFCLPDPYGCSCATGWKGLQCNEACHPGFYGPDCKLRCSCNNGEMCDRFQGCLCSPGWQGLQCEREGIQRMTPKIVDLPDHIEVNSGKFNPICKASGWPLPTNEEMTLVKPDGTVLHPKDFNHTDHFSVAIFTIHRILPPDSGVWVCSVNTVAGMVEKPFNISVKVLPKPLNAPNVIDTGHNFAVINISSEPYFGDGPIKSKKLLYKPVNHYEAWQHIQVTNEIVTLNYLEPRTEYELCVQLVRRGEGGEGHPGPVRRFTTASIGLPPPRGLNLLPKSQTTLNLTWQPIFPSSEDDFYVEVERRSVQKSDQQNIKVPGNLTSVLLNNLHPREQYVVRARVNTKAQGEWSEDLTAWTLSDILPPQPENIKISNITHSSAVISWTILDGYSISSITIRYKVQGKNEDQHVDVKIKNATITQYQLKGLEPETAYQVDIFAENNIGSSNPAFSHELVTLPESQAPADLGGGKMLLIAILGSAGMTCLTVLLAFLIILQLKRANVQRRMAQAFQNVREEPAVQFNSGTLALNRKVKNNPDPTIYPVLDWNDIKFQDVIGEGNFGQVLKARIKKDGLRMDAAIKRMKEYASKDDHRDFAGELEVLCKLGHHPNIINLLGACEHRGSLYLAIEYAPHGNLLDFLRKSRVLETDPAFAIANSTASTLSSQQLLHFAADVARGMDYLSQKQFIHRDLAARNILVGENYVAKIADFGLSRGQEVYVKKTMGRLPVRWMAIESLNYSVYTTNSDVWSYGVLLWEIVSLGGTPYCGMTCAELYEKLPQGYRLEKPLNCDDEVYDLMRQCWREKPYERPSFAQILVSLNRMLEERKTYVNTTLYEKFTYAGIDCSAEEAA
Experiment: KinaseProfiler kinase activity assay
Format: biochemical
Details: ATP at Km
Excerpt: A summary is provided below.

{"Entry Smiles": "Nc1nc(Nc2ccc3c(c2)CC[C@@H](N2CCCC2)CC3)nn1-c1cc2c(nn1)-c1ccccc1CCC2", "Experimental Target": "TEK(Y897S) (Homo sapiens, UniProt Q02763, Y897S)", "IC50 [nM]": 13}

###

Target: Abl(H396P) (Homo sapiens, UniProt P00519, H396P)
Assay: KinaseProfiler kinase activity assay
Assay type: biochemical
Parameters: purchased EMD Millipore Corp. (KinaseProfiler service)
Settings: ATP at Km
Observation Type: IC50 (nM)

{"Entry Smiles": "Nc1nc(Nc2ccc3c(c2)CC[C@@H](N2CCCC2)CC3)nn1-c1cc2c(nn1)-c1ccccc1CCC2", "Observation Type": "IC50", "Data Value": 22}

###

Target: Abl(M351T) (Homo sapiens, UniProt P00519, M351T)
Test: KinaseProfiler kinase activity assay
Format: biochemical
Set-up: purchased EMD Millipore Corp. (KinaseProfiler service)
Conditions: ATP at Km
Observation Type: IC50 (nM)

{"Entry Smiles": "Nc1nc(Nc2ccc3c(c2)CC[C@@H](N2CCCC2)CC3)nn1-c1cc2c(nn1)-c1ccccc1CCC2", "Observation Type": "IC50", "Measurement Units": "nM", "Data Value": 32}

###

Target: Ret (V804M) (Homo sapiens, UniProt P07949, V804M)
Assay: KinomeScan competition binding assay
Parameters: purchased DiscoveRx Corporation (KinomeScan service)

{"Entry Smiles": "Nc1nc(Nc2ccc3c(c2)CC[C@@H](N2CCCC2)CC3)nn1-c1cc2c(nn1)-c1ccccc1CCC2", "Experimental Target": "Ret (V804M) (Homo sapiens, UniProt P07949, V804M)", "Kd": "72 nM"}

###

Molecular target: Abl(Y253F) (Homo sapiens, UniProt P00519, Y253F)
Test: KinomeScan competition binding assay
Set-up: purchased DiscoveRx Corporation (KinomeScan service)

{"Molecule": "Nc1nc(Nc2ccc3c(c2)CC[C@@H](N2CCCC2)CC3)nn1-c1cc2c(nn1)-c1ccccc1CCC2 [Compound A]", "Experimental Target": "Abl(Y253F) (Homo sapiens, UniProt P00519, Y253F)", "Kd / nM": 18}

###

Target: Ret (V804L) (Homo sapiens, UniProt P07949, V804L)
Sequence (P07949 29-1114 V804L): as the sequence (P07949 29-1114 V804M) above, with M776L counted along it
Assay: KinaseProfiler kinase activity assay
Format: biochemical
Set-up: purchased EMD Millipore Corp. (KinaseProfiler service)
Details: ATP at Km

{"Compound": "Nc1nc(Nc2ccc3c(c2)CC[C@@H](N2CCCC2)CC3)nn1-c1cc2c(nn1)-c1ccccc1CCC2 [Compound A]", "IC50": "11 nM"}

###

Molecular target: Flt3 (D835H) (Homo sapiens, UniProt P36888, D835H)
Construct: purchased DiscoveRx Corporation (KinomeScan service)
Sequence (P36888 27-993 D835H): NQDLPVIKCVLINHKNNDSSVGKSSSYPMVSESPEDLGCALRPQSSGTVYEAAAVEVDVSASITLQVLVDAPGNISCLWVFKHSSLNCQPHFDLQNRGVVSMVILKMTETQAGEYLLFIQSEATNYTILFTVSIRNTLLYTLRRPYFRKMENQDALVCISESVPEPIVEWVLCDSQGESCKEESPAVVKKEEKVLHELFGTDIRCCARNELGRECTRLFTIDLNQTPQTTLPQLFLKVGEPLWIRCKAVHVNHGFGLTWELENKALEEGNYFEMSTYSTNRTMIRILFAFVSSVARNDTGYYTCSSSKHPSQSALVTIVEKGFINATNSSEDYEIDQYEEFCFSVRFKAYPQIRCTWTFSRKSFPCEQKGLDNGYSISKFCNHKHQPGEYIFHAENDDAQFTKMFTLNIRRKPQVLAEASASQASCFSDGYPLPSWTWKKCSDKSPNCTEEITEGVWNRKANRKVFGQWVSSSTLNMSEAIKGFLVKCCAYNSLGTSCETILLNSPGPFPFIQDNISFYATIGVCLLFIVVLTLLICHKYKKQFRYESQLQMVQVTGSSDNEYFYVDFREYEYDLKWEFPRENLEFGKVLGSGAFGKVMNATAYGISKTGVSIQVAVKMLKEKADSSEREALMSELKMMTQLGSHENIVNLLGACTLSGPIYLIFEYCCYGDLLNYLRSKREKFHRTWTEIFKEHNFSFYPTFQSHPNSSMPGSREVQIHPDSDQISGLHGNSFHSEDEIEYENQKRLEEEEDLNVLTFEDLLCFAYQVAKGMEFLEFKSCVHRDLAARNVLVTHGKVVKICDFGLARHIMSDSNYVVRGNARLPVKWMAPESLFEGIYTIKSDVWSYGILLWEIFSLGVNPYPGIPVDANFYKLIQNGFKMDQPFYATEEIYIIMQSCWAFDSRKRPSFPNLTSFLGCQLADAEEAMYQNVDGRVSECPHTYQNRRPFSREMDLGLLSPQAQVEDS
Assay: KinomeScan competition binding assay

{"Entry Smiles": "Nc1nc(Nc2ccc3c(c2)CC[C@@H](N2CCCC2)CC3)nn1-c1cc2c(nn1)-c1ccccc1CCC2", "Kd / nM": 8.4}
